# Test system: P-gp (rat Mdr1a and human MDR1)
# test summary: in vitro
# test conditions: human, pH 7.4, apparent permeability values (span over both directions), A–B and B–A, across both IPEC-J2 rMdr1a and IPEC-J2 MDR1 monolayers
metric name: Papp at 120 min

INSERT INTO assay_data (smi, result) VALUES
  ('OC[C@@H](O)[C@@H](O)[C@H](O)[C@H](O)CO', '0.25 to 0.44 ×10⁻⁶ cm/s');

* * *

# Test system: P-gp (rat Mdr1a)
# test summary: in vitro
# test conditions: pH 7.4
metric name: Papp B→A at 120 min (×10⁻⁶ cm/s)

INSERT INTO measurements (molecule, unit_abbrev, recorded_number) VALUES
  ('CC[C@]1(O)C[C@@H]2CN(CCc3c([nH]c4ccccc34)[C@@](C(=O)OC)(c3cc4c(cc3OC)N(C)[C@H]3[C@@](O)(C(=O)OC)[C@H](OC(C)=O)[C@]5(CC)C=CCN6CC[C@]43[C@@H]65)C2)C1 [vinblastine]', '×10⁻⁶ cm/s', 20),
  ('Cc1cc2c(s1)Nc1ccccc1N=C2N1CCN(C)CC1 [olanzapine]', '×10⁻⁶ cm/s', 44),
  ('OC[C@@H](O)[C@@H](O)[C@H](O)[C@H](O)CO [mannitol]', '×10⁻⁶ cm/s', 0.44);
